# System: Swiss-Webster male mice
# protocolNotes: Mouse Activity and Screen Test (MAST): inhibition of spontaneous locomotor activity
# Type: in vivo
# experimentalParameters: 0.3 mg/kg i.p., 1 hour prior to testing
Parameter threshold = 40%. Response is Yes when Inhibition of Mouse Locomotor Activity meets or exceeds it, else No.

Asked: Entry Nc1nc(NCC(O)CO)c2ncn([C@@H]3O[C@H](CO)[C@@H](O)[C@H]3O)c2n1 (some centres unmarked) : is its Inhibition of Mouse Locomotor Activity no less than 40%?
Given back: Yes

Asked: Entry CC1(C)OCC(CNc2ncnc3c2ncn3[C@@H]2O[C@H](CO)[C@@H](O)[C@H]2O)O1 (some centres unmarked) : is its Inhibition of Mouse Locomotor Activity no less than 40%?
Given back: No

Asked: Entry `OC[C@@H](O)CNc1ncnc2c1ncn2[C@@H]1O[C@H](CO)[C@@H](O)[C@H]1O` : is its Inhibition of Mouse Locomotor Activity no less than 40%?
Given back: No

Asked: Entry OCC(O)CNc1ncnc2c1ncn2[C@@H]1O[C@H](CO)[C@@H](O)[C@@H]1O (stereo partly drawn) [Example 1, (R,S)-N^6 [2,3-Dihydroxypropyl]adenosine] : is its Inhibition of Mouse Locomotor Activity no less than 40%?
Given back: Yes

Origin of the recorded values: patent US4616003A
